Each entry below carries its reported koff.
tgt: T1, recombinant hAng-2 (C-His, R&D Systems) (human, UniProt O15123 19-496)
T1 construct: Bought protein; also called human Ang-2 protein; C-terminal histidine-tagged human Ang2 (R&D Systems); not shown: C-terminal His tag
T1 sequence: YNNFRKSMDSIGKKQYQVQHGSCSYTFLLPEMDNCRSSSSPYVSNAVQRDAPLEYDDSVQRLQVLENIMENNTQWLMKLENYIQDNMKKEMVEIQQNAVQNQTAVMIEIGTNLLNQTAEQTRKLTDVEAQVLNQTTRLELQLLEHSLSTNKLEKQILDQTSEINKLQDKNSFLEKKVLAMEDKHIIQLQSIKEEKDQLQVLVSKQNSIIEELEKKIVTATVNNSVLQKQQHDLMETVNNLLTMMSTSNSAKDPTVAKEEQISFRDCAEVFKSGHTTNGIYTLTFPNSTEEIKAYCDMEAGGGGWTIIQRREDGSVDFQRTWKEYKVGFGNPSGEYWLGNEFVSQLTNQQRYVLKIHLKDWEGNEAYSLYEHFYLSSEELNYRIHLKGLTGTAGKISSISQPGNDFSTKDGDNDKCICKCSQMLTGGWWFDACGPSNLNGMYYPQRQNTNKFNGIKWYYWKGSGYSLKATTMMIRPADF
test protocol: SPR, BIAcore T100; hAng2 (C-His) captured by anti-His antibody on CM5, antibody as analyte
The answer is to be given in s⁻¹; state only the numeric part.

Recorded koff, per entry:
| binder | uom | recorded measurement |
| --- | --- | --- |
| 10D6-HU5 (antibody, V domains shown, Humanized antibody; also called humanized antibody 10D6-HU5) VH: QVQLQESGPGLVKPSETLSLTCAVSGYSITSDYAWNWIRQPPGKGLEWIGYINYSGNTDYNPSLKSRVTISVDTSKNQFSLKLSSVTAADTAVYYCARGNFEGAMDYWGQGTLVTVSS VL: DIQMTQSPSSLSASVGDRVTITCKASQSVSNDVAWYQQKPGKAPKLLIYYASNRYPGVPSRFSGSGSGTDFTLTISSLQPEDFATYYCQQDYSSPWTFGQGTKLEIK | s⁻¹ | 0.00312 |
| h10D6-OPTI-4 (antibody, human IgG1, V domains shown) VH: EVQLVESGGGLVQPGGSLRLSCAASGYSITSDYAWNWVRQAPGKGLEWMGKINYAGNTDYNPSLKSRSTISRDTSKNTFYLQMNSLRAEDTAVYYCARGNFEGAMDYWGQGTLVTVSS VL: DIQMTQSPSSLSASVGDRVTITCKASQSVSNDVAWYQQKPGKAPKLLIYYASNRYPGVPSRFSGSGSGTDFTLTISSLQPEDFATYYCQQDYSSPWTFGQGTKLEIK | s⁻¹ | 0.000246 |
| h10D6-OPTI-42 (antibody, human IgG1, V domains shown) VH: QVQLQESGPGLVKPSETLSLTCAVSGYSITSDYAWNWIRQPPGKGLEWIGYINYSGNTDYNPSLKSRVTISVDTSKNQFSLKLSSVTAADTAVYYCARGNFEGAMDYWGQGTLVTVSS VL: DIQMTQSPSSLSASVGDRVTITCKASQSVSNDVHWYQQKPGKAPKLLIYYASNRYPGVPSRFSGSGSGTDFTLTISSLQPEDFATYYCQHDYSSPFTFGQGTKLEIK | s⁻¹ | 0.000286 |

Task: Quick one: koff of h10D6-OPTI-16 (antibody, human IgG1, V domains shown) VH: EVQLVESGGGLVQPGGSLRLSCAASGYSITSDYAWNWVRQAPGKGLEWMGKISYSGKTDYNPSLKSRSTISRDTSKNTFYLQMNSLRAEDTAVYYCARGNFEGAMDYWGQGTLVTVSS VL: DIQMTQSPSSLSASVGDRVTITCKASQSVSNDVHWYQQKPGKAPKLLIYYASNRYPGVPSRFSGSGSGTDFTLTISSLQPEDFATYYCQQDYSSPWTFGQGTKLEIK ?
Result: 0.000443

Task: Need koff, item h10D6-OPTI-55 (antibody, human IgG1, V domains shown) VH: QVQLQESGPGLVKPSETLSLTCAVSGYSITSDYAWNWIRQPPGKGLEWMGKINYAGNTDYNPSLKSRSTISRDTSKNQFSLKLSSVTAADTAVYYCARGNFEGAMDYWGQGTLVTVSS VL: DIQMTQSPSSLSASVGDRVTITCKASQSVSNDVHWYQQKPGKAPKLLIYYASNRYPGVPSRFSGSGSGTDFTLTISSLQPEDFATYYCQQDYSSPWTFGQGTKLEIK
Result: 8.49e-05

Task: So what does the record say about koff for 10D6-HU2 (antibody, V domains shown, Humanized antibody; also called humanized antibody 10D6-HU2) VH: QVQLQESGPGLVKPSETLSLTCAVSGYSITSDYAWNWIRQPPGKGLEWMGYINYSGNTDYNPSLKSRSTISRDTSKNQFSLKLSSVTAADTAVYYCARGNFEGAMDYWGQGTLVTVSS VL: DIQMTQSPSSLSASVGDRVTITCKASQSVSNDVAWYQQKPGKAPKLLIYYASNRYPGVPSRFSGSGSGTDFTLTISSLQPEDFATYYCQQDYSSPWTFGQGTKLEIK ?
Result: 0.00346

Task: Can you look up the measured koff of 10D6-HU1 (antibody, V domains shown, Humanized antibody; also called humanized antibody 10D6-HU1) VH: QVQLQESGPGLVKPSETLSLTCAVSGYSISSDYAWNWIRQPPGKGLEWIGYINYSGNTDYNPSLKSRVTISVDTSKNQFSLKLSSVTAADTAVYYCARGNFEGAMDYWGQGTLVTVSS VL: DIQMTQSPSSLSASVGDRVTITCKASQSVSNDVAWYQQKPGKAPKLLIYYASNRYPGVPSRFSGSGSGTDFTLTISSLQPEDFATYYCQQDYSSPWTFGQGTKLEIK for me?
Result: 0.0026

Task: May I ask what koff has been recorded for h10D6-OPTI-70 (antibody, human IgG1, V domains shown) VH: EVQLVESGGGLVQPGGSLRLSCAASGYSITSDYAWNWVRQAPGKGLEWMGKISYSGKTDYNPSLKSRSTISRDTSKNTFYLQMNSLRAEDTAVYYCARGNFEGAMDYWGQGTLVTVSS VL: DIQMTQSPSSLSASVGDRVTITCKASQSVSNDVAWYQQKPGKAPKLLIYYASIPYPGVPSRFSGSGSGTDFTLTISSLQPEDFATYYCQQDYSSPWTFGQGTKLEIK ?
Result: 0.000116
